Measured LOEC (lowest-observed-effect concentration), Oscillatoria perornata, listed per entry for reference.
System: Oscillatoria perornata
experiment: Rapid bioassay screening for selective algicides (LOEC, LCIC)
Format: cell-based
assay_setup: rapid screening

Solved entries:
compound	data_value
CC(C)N(Cc1ccc2c(c1)C(=O)c1ccccc1C2=O)C(C)C.O=P(O)(O)O [DNA2-49-1]	1,000 nM
CCNCc1ccc2c(c1)C(=O)c1ccccc1C2=O.O=P(O)(O)O [DNA3-17-1]	1,000 nM

Please indicate LOEC (lowest-observed-effect concentration), Oscillatoria perornata recorded for CN(C)CCCNc1cccc2c1C(=O)c1ccccc1C2=O.O=P(O)(O)O [DNA2-93-1]
1,000 nM

###

Test system: Selenastrum capricornutum
experiment: Rapid bioassay screening for selective algicides (LOEC, LCIC)
Assay type: cell-based
assay_setup: rapid screening
Quick reference for LCIC (lowest-complete-inhibition concentration), Selenastrum capricornutum among some compounds

Below: 4 compounds and their reported LCIC (lowest-complete-inhibition concentration), Selenastrum capricornutum.
compound	data_value
CCCC(C)NCc1ccc2c(c1)C(=O)c1ccccc1C2=O.O=P(O)(O)O (centres unmarked) [DNA2-53-1]	100,000 nM
CCN(CC)CCCNC(C)c1ccc2c(c1)C(=O)c1ccccc1C2=O (centres unmarked) [DNA2-87-1]	100,000 nM
CN(C)CCCNCc1ccc2c(c1)C(=O)c1ccccc1C2=O.O=P(O)(O)O.O=P(O)(O)O [DNA2-23-1]	10,000 nM
O=C1c2ccccc2C(=O)c2cc(COCCOCCOCCOCCO)ccc21 [DNA3-59-1]	>100,000 nM

Turning now to a further compound:
Enter measured LCIC (lowest-complete-inhibition concentration), Selenastrum capricornutum, system Selenastrum capricornutum, for the compound shown: CC(C)NC(C)c1ccc2c(c1)C(=O)c1ccccc1C2=O (centres unmarked) [DNA2-89-1]
100,000 nM

###

experiment: DNA2-59-1 second efficacy study: dissipation rate and half-life in pond water (HPLC)
Format: physicochemical
assay_setup: pond water in limnocorrals (earthen catfish pond); second efficacy study
parameter: half-life at 0.3 μM (h)
# value in h; strip the unit string

Find the measured half-life at 0.3 μM of "CC(C)NCc1ccc2c(c1)C(=O)c1ccccc1C2=O" and report it.
19

###

System: Selenastrum capricornutum
experiment: 96-hour IC50 determination
Format: cell-based
assay_setup: 96-hour 50% inhibition concentration; read-out: IC50, Selanastrum capricornutum
Protocol: The green alga Selenastrum capricornutum (obtained from the United States Environmental Protection Agency, Corvallis, Oreg.) was used as the representative green algal species in the bioassay since it is a common species found in southeastern United States catfish ponds. […] Estimation of the IC50 was determined by plotting 96-hour absorbance readings against logarithmic dilution values of the anthraquinone analogs. […]
parameter: pIC50
Entry type: numeric. Quantity: pIC50, the -log10 of concentration in molar units.

Please indicate pIC50 recorded for CCN(CC)CCCC(C)NCc1ccc2c(c1)C(=O)c1ccccc1C2=O.O=P(O)(O)O.O=P(O)(O)O (stereo not shown) [DNA1-19-1]
5.30

###

experiment: DNA2-59-1 third efficacy study: dissipation rate and half-life in pond water (HPLC)
Format: physicochemical
assay_setup: pond water in limnocorrals (earthen catfish pond); third efficacy study
Procedure: For the third efficacy test with DNA2-59-1, twelve limnocorrals (2.44 m in diameter and 1.53 m high) were placed in a 4-ha earthen pond containing a bloom of O. perornata. […] Filtrate samples were analyzed using a Waters 2690 Alliance HPLC containing a 996 PDA detector and a XTerra RP 18 column (150 mm×4.6 mm, 5 μm particle size; Waters Corporation, Milford, Mass.). […] Means and standard deviations of data were determined and graphed. […]
parameter: half-life at 0.3 μM

Report measured half-life at 0.3 μM; entry is CC(C)NCc1ccc2c(c1)C(=O)c1ccccc1C2=O [DNA2-59-1]
19 h
